Test system: MS2 coat protein
Assay: apparent KD of MS2 coat protein; designed switch direction (-1 OFF switch, 1 ON switch): -1; higher = weaker reporter binding
Conditions: input ligand: FMN 200 uM
Quick rule: apparent KD of MS2 coat protein of at least 100 nM means YES, below that means NO.

Does AUCGUGUGAGGAUAUCGAUGUUGGACGUCUAGGUCUGUGCGCGAGAAGGCACAUGAGGAUCACCCAUGUAAUGG [jl-ex4-4.26 ViennaUCT mod] (Eterna round: R97, puzzle: Exclusion 4) have a reported apparent KD of MS2 coat protein of at least 100 nM? YES

Does AGUGUGUGGCAGGAUAUUCCGGUCGUUGGUCGGGAAGAAGGGUCUACAUGAGGAUCACCCAUGUGAGCGGUUGA [Ex6 #50] (Eterna round: R97, puzzle: Exclusion 6) have a reported apparent KD of MS2 coat protein of at least 100 nM? YES

Does AAAUAGUAGCAGGAUAUGAGUAUUAUUGGAAGCUCAGAAGGGCUGACAUGAGGAUCACCCAUGUGUUAUGUCGG [Eternabot (L1) Solution 54] (Eterna round: R97, puzzle: Exclusion 6) have a reported apparent KD of MS2 coat protein of at least 100 nM? NO

Does UUUUAGGCAGGAUAUACAUGAGGAUCACCCAUGUAAAUUUUUCGUUUAACUUGAAUGUGUAGAAGGGCCAUUUU [Ex3 #59] (Eterna round: R97, puzzle: Exclusion 3) have a reported apparent KD of MS2 coat protein of at least 100 nM? NO

Does ACGCAUUGCCUUUGGUAGUGCGUUACAUGAGGAUCACCCAUGUAGGAUAUGGUAGGCUUUGCUUACCAGAAGGACAUGAUAAUU [JL ENG3 1.02] (Eterna round: R96, puzzle: Exclusion NG 3) have a reported apparent KD of MS2 coat protein of at least 100 nM? YES

###

System: MS2 coat protein
Assay: apparent KD of MS2 coat protein; higher = weaker reporter binding
Details: Eterna round: R107; input ligand: arginine 13.2 mM
VALUE_TYPE: apparent KD of MS2 coat protein
Number first, unit second.

For the sequence ACAUGAGGAUCACCCAUGUUCCUCGCCGAUACCAGUGAAGAAGUACGCCCUUGGCAGCGGAAAGAGUAUUUUGGAGAUGAGGUAC [6.Y] , what apparent KD of MS2 coat protein is on record? 57 nM

For the sequence UGUACAUGAGGAUCACCCAUGUUACGCGAUACCAGACAUGAGAGUGUCCCUUGGCAGCGUGGAGCUGAUACGGCGGGAAGCCGGA [#10 SameState-TheophyllineA] , what apparent KD of MS2 coat protein is on record? 16.1 nM

For the sequence GCGAUGGAGCGAAGGAGCGUGCUAGUACAUGAGGAUCACCCAUGUGAGUCGCAUCGCUAAGCACAGGUAGGUCGCGCUCCAUCGC [EAB NP+V+V2 #9] , what apparent KD of MS2 coat protein is on record? 44.6 nM

For the sequence CCGUUUUAUGGCGACAUAGGGCGGACUGAAGGAGCGGUAUAAAAGCCAGGUAGGUCGCAGAGAUCCACAUGAGGAUCACCCAUGU [!0.aA] , what apparent KD of MS2 coat protein is on record? 29.4 nM

For the sequence UGUAUGGACUGAAGGAGCGCCUCAAAAUAACUUGAGGAACACCCAAGUAAGGCGAAAGCCGGGCAGGUAGGUCGCAGUCCAUACU [ArgBX 3] , what apparent KD of MS2 coat protein is on record? 31 nM

For the sequence AUAAGUAAUGUUUCGUGUAUUAUUACAGAUACCAGACUAUACGUUGUCCCUUGGCAGCUGGAUUACAUGAGGAUCACCCAUGUUG [JR_ExcTheophyA_Sub002] , what apparent KD of MS2 coat protein is on record? 16 nM

For the sequence AGUCUUGAACGAAGGAGCGACGUACAUGAGGAUCACCCAUGUGGAGCGAAAGCUCCGUAACGUCAGGUAGGUCGCGUUCGAGACA [Omei Arginine B SS A v3] , what apparent KD of MS2 coat protein is on record? 6.89 nM

For the sequence AUCGUACCUAGUGAUACCAGCAAGUGAUCAUAACAUGAGGAUCACCCAUGUAAUCAGUGAUGCCCUUGGCAGCAUAAUCGUUACA [Same State - Theophylline B (Freestyle 1)] , what apparent KD of MS2 coat protein is on record? 118 nM

For the sequence UCUAGUGCGGGAAGGAGCGCCAUACAUGAGGAUCACCCAUGUUGAGCAUGCUCGUGUACUAGGCAGGUAGGUCGCCCGCUCUACG [Radionle] , what apparent KD of MS2 coat protein is on record? 28.8 nM

For the sequence CCCAUACAUGAGGAUCACCCAUGUGUUGAUACCAGCAUAUGUAGAUGCCCUUGGCAGCAAGCUUGGGUCACUGGAAAACAUCUAA [theeternabot_sameState_MS2_Theo_A_38] , what apparent KD of MS2 coat protein is on record? 23.8 nM

For the sequence GACAUGAGGAUCACCCAUGUACCGCGAGAAGGAGCGCGGAUAAACGCAGGUAGGUCGCUCGUGGGCUUAUAUUCAAUUGUAAGCU [Usence] , what apparent KD of MS2 coat protein is on record? 24.8 nM

For the sequence UGACAUUGCUCAGAUACCAGACAUGAGCAUCAGCCAUGUACCAAGAGUACAUGUUAAAGUGUCCCUUGGCAGCUGAGCAAUGUCU [Mod of Eli's TheoBX5 #AlternateMS2 v3] , what apparent KD of MS2 coat protein is on record? 56.4 nM

###

Record form. Attribute: apparent KD of K4 kissing-loop reporter. Fill in for each entry.
System: K4 kissing-loop RNA reporter
Test: apparent KD of K4 kissing-loop reporter; higher = weaker reporter binding
Conditions: Eterna round: R107; input ligand: FMN 200 uM
Give the number; nM is assumed, so skip it.

For the sequence AAUGAUGAUUGACACAUUUACUAAAAGGAAGGAGCGGCGAUGUGGCCAGGUAGGUCGCCUUUUAGCAGUGAUGUUGCUAUAUGUU [JR_Nu_ExcArginiA_Sub026] , what apparent KD of K4 kissing-loop reporter is on record? 84.5

For the sequence GGUGUGCCAAGUGAUGUUUGGCGUUCUCACCGAGGACCGGUACGGCCGCCACUCGUUAACUGACCAAGUAUCUUUACCUCGGAGA [theeternabot_sameState_KL_Trp_A_8] , what apparent KD of K4 kissing-loop reporter is on record? 168

For the sequence GGGAGUAUUGCGGCCGCCACUGAGGAAGAAGAAGGCCAUAGUGAUGUUAUGGAGGAAAGGAAGAACAGGACCGGGCAGUAGAUUU [#22 K4 Tryptophan B Same State] , what apparent KD of K4 kissing-loop reporter is on record? 154

###

Record form. Attribute: apparent KD of K4 kissing-loop reporter. Fill in for each entry.
Tested on: K4 kissing-loop RNA reporter;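 further: bound reporter read as fluorescence of individual clusters on recovered sequencing chips by microscopy, with normalized cluster intensities fitted with a binding model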
Assay: apparent KD of K4 kissing-loop reporter; higher = weaker reporter binding
Conditions: Eterna round: R107; input ligand: arginine 13.2 mM
Give the number; nM is assumed, so skip it.

For the sequence GGAUAGGACAGAGGAUAUCCUUGAGGCAAGAAACUUGUCUCUAAAAGGAUGAACCUAGUGAUGUUAGGAGAAGGCUGUCCUAUCG [FmnBX 13 - #SwitchBubble #StaticStem #Palindromic] , what apparent KD of K4 kissing-loop reporter is on record? 90

For the sequence AGGCACGAGCAAGGAUAUCGAGUAGAGUGAUGUUCUGCCUGGGUUGGCCCGUAAGGGCCUUCCCAGCGAGAAGGUGCUCGUGCCU [#2 Same State - FMN A Attempt #10 (HarryS)] , what apparent KD of K4 kissing-loop reporter is on record? 505

For the sequence CUCGUGGGUUUGAGAGGGCUUGUGGGAAGUGAGGAUAUUUAGGGAGAAAGAAGGCACUAUAGAAUAUAGUGAUGUUAUAUAUGGG [SSFMNA.Q] , what apparent KD of K4 kissing-loop reporter is on record? 109

For the sequence UGUCAUGGAAACAUGAACGUUGAAAUAUGACGAGGACCGGUACGGCCGCCACUCGAGUAAUGGUCAGUGAUGUUGACUGGAUUAA [KL-SSTryp-A form1 sub5 #split stat1] , what apparent KD of K4 kissing-loop reporter is on record? 110

For the sequence AUUAAUAUCACGGCCGCCACUGAAUAUUGUUUUUAUAUUUAGAAUAAUUGCCAGUGAUGUUGGAUCAGGACCGGGUGAGUUUAUA [JR_SSTryptoB_Sub007] , what apparent KD of K4 kissing-loop reporter is on record? 362
